Form field: Ratio (one value per entry).
# tested-on: Fatty-acid amide hydrolase 1 (Homo sapiens) (UniProt O00519)
# Sequence (whole entry): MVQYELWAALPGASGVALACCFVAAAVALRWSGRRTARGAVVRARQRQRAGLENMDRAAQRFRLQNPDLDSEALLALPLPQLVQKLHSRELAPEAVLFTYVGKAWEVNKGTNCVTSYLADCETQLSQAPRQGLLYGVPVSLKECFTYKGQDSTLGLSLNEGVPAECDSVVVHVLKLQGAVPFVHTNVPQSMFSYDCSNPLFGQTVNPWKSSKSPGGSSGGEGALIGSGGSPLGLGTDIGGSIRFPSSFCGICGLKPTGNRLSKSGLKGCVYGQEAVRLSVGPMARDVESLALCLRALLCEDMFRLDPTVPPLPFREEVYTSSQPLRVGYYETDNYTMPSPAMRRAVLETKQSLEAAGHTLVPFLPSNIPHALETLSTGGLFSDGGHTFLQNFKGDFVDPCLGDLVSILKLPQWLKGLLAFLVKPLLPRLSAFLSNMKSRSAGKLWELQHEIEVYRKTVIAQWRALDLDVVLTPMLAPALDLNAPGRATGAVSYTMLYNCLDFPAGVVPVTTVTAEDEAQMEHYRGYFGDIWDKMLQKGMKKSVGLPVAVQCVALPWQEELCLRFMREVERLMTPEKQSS
# assay: Ratio of Kinact to Ki for histidine6-tagged human FAAH
Answer format: numeric, M⁻¹ s⁻¹ implied, no suffix.

CCOc1ccc2c(C)c(CN3CCN(C(=O)Nc4cccnc4)CC3)sc2c1
14

Inquiry: Specify Ratio for Cc1c(C(C)C2CCN(C(=O)Nc3cccnc3)CC2)sc2ccccc12 (stereo in doubt; 17-E1) and stop.
Reply text: 34

Inquiry: Indicate the recorded Ratio value for this molecule: `Cc1c(CC2CCN(C(=O)Nc3cccnc3)CC2)sc2ccccc12`
Reply text: 5130

Inquiry: Supply Ratio value. Item: `Cc1c(CC2CCN(C(=O)Nc3cccnc3)CC2)sc2ccc(F)cc12`
Reply text: 4470

Inquiry: Identify measured Ratio associated with `CCc1c(CC2CCN(C(=O)Nc3cccnc3)CC2)sc2ccc(F)cc12`
Reply text: 2290

Inquiry: Give a short answer stating reported Ratio for `Cc1c(CC2CCN(C(=O)Nc3cccnc3)CC2)sc2cccc(F)c12` .
Reply text: 4150

Inquiry: # return recorded Ratio for entry `CCCCNC(=O)N1CCN(Cc2sc3ccccc3c2C)CC1`
Reply text: 44

Inquiry: Please report Ratio for the following molecule: `Cc1ccc(NC(=O)N2CCN(Cc3sc4ccccc4c3C)CC2)cn1`
Reply text: 44

---

Measured Ratio, listed per entry.
# tested-on: Fatty-acid amide hydrolase 1 (Homo sapiens)
# assay: Ratio of Kinact to Ki for histidine6-tagged human FAAH
API: value field is a number in M⁻¹ s⁻¹; no unit string.

Example cases with answers are listed next.
Cc1c(CN2CCN(C(=O)Nc3ccc(Br)nc3)CC2)sc2ccccc12
70
COc1ccc2sc(CN3CCN(C(=O)Nc4cccnc4)CC3)c(C)c2c1
1380
Cc1noc(NC(=O)N2CCN(Cc3sc4ccccc4c3C)CC2)c1C
1560
Cc1c(CN2CCN(C(=O)Nc3cccnc3)CC2)sc2ccccc12
2400
Cc1c(C(C)C2CCN(C(=O)Nc3cccnc3)CC2)sc2ccccc12 (stereo in doubt; 17-E2)
617

Inquiry: Give the observed Ratio of `Cc1c(CN2CCN(C(=O)NCCO)CC2)sc2ccccc12` for Fatty-acid amide hydrolase 1 (Homo sapiens).
Reply text: 42

Inquiry: Give measured Ratio for `Cc1ccc(NC(=O)N2CCN(Cc3sc4ccc(F)cc4c3C)CC2)cn1` (Fatty-acid amide hydrolase 1 (Homo sapiens)).
Reply text: 1870

---

# tested-on: Fatty-acid amide hydrolase 1 (Rattus norvegicus)
# Sequence (whole entry): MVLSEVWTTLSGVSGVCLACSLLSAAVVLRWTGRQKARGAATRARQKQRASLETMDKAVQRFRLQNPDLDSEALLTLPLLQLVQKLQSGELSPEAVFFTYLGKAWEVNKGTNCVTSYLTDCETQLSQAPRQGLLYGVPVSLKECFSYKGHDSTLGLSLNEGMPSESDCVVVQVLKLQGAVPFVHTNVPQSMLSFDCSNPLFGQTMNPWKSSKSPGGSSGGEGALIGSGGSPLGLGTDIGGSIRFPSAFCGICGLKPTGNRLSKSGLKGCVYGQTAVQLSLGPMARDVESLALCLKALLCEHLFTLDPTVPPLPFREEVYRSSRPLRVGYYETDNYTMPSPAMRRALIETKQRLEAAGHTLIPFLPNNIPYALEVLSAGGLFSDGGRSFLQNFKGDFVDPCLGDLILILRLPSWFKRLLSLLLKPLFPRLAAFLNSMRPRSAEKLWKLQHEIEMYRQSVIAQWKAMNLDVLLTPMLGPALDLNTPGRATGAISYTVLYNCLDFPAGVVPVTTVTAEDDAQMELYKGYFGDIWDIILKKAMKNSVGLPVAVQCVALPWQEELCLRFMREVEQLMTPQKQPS
# assay: Ratio of Kinact to Ki for histidine6-tagged rat FAAH
# note: exactly 500 M⁻¹ s⁻¹ is not below, so it is FALSE; use TRUE for Ratio strictly under it

Consider the following illustrative entries.
Cc1c(CN2CCN(C(=O)Nc3ccc(Oc4cccnc4)nc3)CC2)sc2ccccc12
TRUE
Cc1c(CN2CCN(C(=O)NC(C)(C)C)CC2)sc2ccccc12
TRUE

Inquiry: API: query returns whether the compound falls strictly under 500 M⁻¹ s⁻¹ in Ratio. Query: `Cc1c(CN2CCN(C(=O)NCCO)CC2)sc2ccccc12`
Reply text: TRUE

Inquiry: Record `Cc1c(CN2CCN(C(=O)NC(C)C)CC2)sc2ccccc12` : is its Ratio strictly below 500 M⁻¹ s⁻¹?
Reply text: TRUE

Inquiry: State whether 500 M⁻¹ s⁻¹ exceeds Ratio recorded for `Cc1c(CN2CCN(C(=O)NCc3ccccc3)CC2)sc2ccccc12` .
Reply text: TRUE

Inquiry: Item `Cc1c(CN2CCN(C(=O)Nc3ccc(N)nc3)CC2)sc2ccccc12` : Ratio beneath 500 M⁻¹ s⁻¹, strictly?
Reply text: FALSE

Inquiry: Please state whether Ratio is below 500 M⁻¹ s⁻¹ for `Cc1c(CN2CCN(C(=O)Nc3ccc(C(F)(F)F)nc3)CC2)sc2ccccc12`
Reply text: TRUE

Inquiry: Here's an entry: `Cc1ccc2sc(CC3CCN(C(=O)Nc4cccnc4)CC3)c(C)c2c1` . Is its Ratio below 500 M⁻¹ s⁻¹?
Reply text: TRUE

Inquiry: API: query returns whether the compound falls strictly under 500 M⁻¹ s⁻¹ in Ratio. Query: `CCNc1ccc(NC(=O)N2CCN(Cc3sc4ccccc4c3C)CC2)cn1`
Reply text: TRUE

Inquiry: State whether 500 M⁻¹ s⁻¹ exceeds Ratio recorded for Cc1c(C(O)C2CCN(C(=O)Nc3cccnc3)CC2)sc2ccccc12 (racemic) .
Reply text: TRUE

Inquiry: Dear colleague, could you confirm whether Ratio of `Cc1c(CN2CCN(C(=O)Nc3cccnc3)CC2)sc2ccc(Cl)cc12` falls below 500 M⁻¹ s⁻¹? Thanks.
Reply text: FALSE

Inquiry: Hi there! Is Ratio for `Cc1cnc(NC(=O)N2CCN(Cc3sc4ccccc4c3C)CC2)s1` below 500 M⁻¹ s⁻¹, do you know?
Reply text: TRUE

Inquiry: # strict comparison: is reported Ratio < 500 M⁻¹ s⁻¹? input = `Cc1ccc(NC(=O)N2CCN(Cc3sc4cccc(F)c4c3C)CC2)cn1`
Reply text: FALSE

Inquiry: A record lists `O=C(Nc1cccnc1)N1CCN(Cc2cc3ccccc3s2)CC1` . Is its Ratio below 500 M⁻¹ s⁻¹?
Reply text: TRUE

Inquiry: Determine if `Cc1c(CN2CCN(C(=O)Nc3ccc(Br)nc3)CC2)sc2ccccc12` shows Ratio strictly lower than 500 M⁻¹ s⁻¹.
Reply text: TRUE

Inquiry: Hi there! Is Ratio for `CCc1c(CC2CCN(C(=O)Nc3cccnc3)CC2)sc2ccc(F)cc12` below 500 M⁻¹ s⁻¹, do you know?
Reply text: FALSE

---

# tested-on: Fatty-acid amide hydrolase 1 (Homo sapiens)
# assay: Ratio of Kinact to Ki for histidine6-tagged human FAAH
measurement-name: Ratio

Example cases with answers are listed next.
COc1ccc(NC(=O)N2CCN(Cc3sc4ccccc4c3C)CC2)cn1
< 10 M⁻¹ s⁻¹
Cc1c(CN2CCN(C(=O)Nc3ccc(Cl)nc3)CC2)sc2ccccc12
< 10 M⁻¹ s⁻¹

Moving on to another molecule below.
Inquiry: Jot down Ratio (Fatty-acid amide hydrolase 1 (Homo sapiens)) of `CNC(=O)CNC(=O)N1CCN(Cc2sc3ccccc3c2C)CC1` .
Reply text: < 10 M⁻¹ s⁻¹
